I'd be grateful if you could share measured abundance fitness for these entries.
B1: Retinoic acid receptor RXR-alpha, residues 132 to 208; numbered along this chain, P19793 (parent)
chain: KHICAICGDRSSGKHYGVYSCEGCKGFFKRTVRKDLTYTCRDNKDCLIDKRQRNRCQYCRYQKCLAMGMKREAVQEE

- Variants of: B1
- assay.text: abundance fitness (aPCA) (normalised: wild type 0, dead -1); higher = more abundant; growth selection in yeast, the domain comes from the species named
- measurement.setup: Homo sapiens

What value of measured abundance fitness is listed for KHICAICGDRSSGKHYGVYSCEGCKGFFKRTVRKDLTDTCRDNKDCLIDKRQRNRCQYCRYQKCLAMGMKREAVQEE [Y38D] ?
-0.115

Now the variant KHICAICGDRSSGKHYGVYSCEGCKGFFKRTVRKDETYTCRDNKDCLIDKRQRNRCQYCRYQKCLAMGMKREAVQEE [L36E]
0.021

Repeat for the following variant: KHICAICGDRSSGKHYGVYSCEGCKGFFKRTVRKDLTYTCRDNKDCLMDKRQRNRCQYCRYQKCLAMGMKREAVQEE [I48M]
0.03

Proceed to KHICAICGDRSSGKHYGVYSCKGCKGFFKRTVRKDLTYTCRDNKDCLIDKRQRNRCQYCRYQKCLAMGMKREAVQEE [E22K]
0.015

Okay, and KHICAICGDRSSGKHYGVLSCEGCKGFFKRTVRKDLTYTCRDNKDCLIDKRQRNRCQYCRYQKCLAMGMKREAVQEE [Y19L] ?
-0.04

Ok, now KHICAICGDRSSGKHYGVYSCEGCKRFFKRTVRKDLTYTCRDNKDCLIDKRQRNRCQYCRYQKCLAMGMKREAVQEE [G26R]
-0.018

Input KHICAICGDRSSGKHYGVYSCEGCKGFFKRTVRKDLTYTCRDFKDCLIDKRQRNRCQYCRYQKCLAMGMKREAVQEE [N43F]
-0.071

Do the same for KHICAICGDRSSGKHYGVYSCEGCKGFFKRTVRKDLTYTCRDNKDCLADKRQRNRCQYCRYQKCLAMGMKREAVQEE [I48A] please
-0.05

Now the variant KHICAICGDRSDGKHYGVYSCEGCKGFFKRTVRKDLTYTCRDNKDCLIDKRQRNRCQYCRYQKCLAMGMKREAVQEE [S12D]
0.001

Then this variant: KHICAICGDRSSGKHYGVYSSEGCKGFFKRTVRKDLTYTCRDNKDCLIDKRQRNRCQYCRYQKCLAMGMKREAVQEE [C21S]
-0.98

Moving on to the next variant: KHICAICGDRSSGKHYGVYSCEGCKGFFKRTVRKDLTYTCRDNKDCLTDKRQRNRCQYCRYQKCLAMGMKREAVQEE [I48T]
0

Again, but for KHICAICGDRSSGKHYGVYSCEGMKGFFKRTVRKDLTYTCRDNKDCLIDKRQRNRCQYCRYQKCLAMGMKREAVQEE [C24M]
-1.18

What do you have for KHICAICGDRSSGKHYGVYSCEGCKGFFKRTVRKDLTYTCRNNKDCLIDKRQRNRCQYCRYQKCLAMGMKREAVQEE [D42N] ?
0.02

Try this variant next: KHGCAICGDRSSGKHYGVYSCEGCKGFFKRTVRKDLTYTCRDNKDCLIDKRQRNRCQYCRYQKCLAMGMKREAVQEE [I3G]
-0.28

Could you do the same for KHICAICGDRSSGWHYGVYSCEGCKGFFKRTVRKDLTYTCRDNKDCLIDKRQRNRCQYCRYQKCLAMGMKREAVQEE [K14W] , please?
-0.013

Record: KHFCAICGDRSSGKHYGVYSCEGCKGFFKRTVRKDLTYTCRDNKDCLIDKRQRNRCQYCRYQKCLAMGMKREAVQEE [I3F]
-0.06

Another variant: KHLCAICGDRSSGKHYGVYSCEGCKGFFKRTVRKDLTYTCRDNKDCLIDKRQRNRCQYCRYQKCLAMGMKREAVQEE [I3L]
0.009

Would you kindly repeat that for KHICAICGDRSSGKHYGVYSCEGCKGFFKRTVRKDLVYTCRDNKDCLIDKRQRNRCQYCRYQKCLAMGMKREAVQEE [T37V] ?
0.035

Item: KRICAICGDRSSGKHYGVYSCEGCKGFFKRTVRKDLTYTCRDNKDCLIDKRQRNRCQYCRYQKCLAMGMKREAVQEE [H2R]
-0.101

How about KHICAIIGDRSSGKHYGVYSCEGCKGFFKRTVRKDLTYTCRDNKDCLIDKRQRNRCQYCRYQKCLAMGMKREAVQEE [C7I] ?
-1.24

Would you mind doing KHICAICGDRSSGKHYGVYSCEGAKGFFKRTVRKDLTYTCRDNKDCLIDKRQRNRCQYCRYQKCLAMGMKREAVQEE [C24A] as well?
-0.875

Ok, now KHICAICGDRSSGKHYFVYSCEGCKGFFKRTVRKDLTYTCRDNKDCLIDKRQRNRCQYCRYQKCLAMGMKREAVQEE [G17F]
-0.088
